target: sRAGE binding to β-amyloid (Homo sapiens, UniProt Q15109); construct: extracellular domain can be isolated by proteolysis of RAGE to generate soluble RAGE (sRAGE) comprised of the V and C domains; experiment: RAGE binding assay (ELISA), β-amyloid as the RAGE ligand; settings: compounds tested in hydrochloride salt form, concentration at which 50% signal has been inhibited
Sequence (Q15109 23-342 limits assumed): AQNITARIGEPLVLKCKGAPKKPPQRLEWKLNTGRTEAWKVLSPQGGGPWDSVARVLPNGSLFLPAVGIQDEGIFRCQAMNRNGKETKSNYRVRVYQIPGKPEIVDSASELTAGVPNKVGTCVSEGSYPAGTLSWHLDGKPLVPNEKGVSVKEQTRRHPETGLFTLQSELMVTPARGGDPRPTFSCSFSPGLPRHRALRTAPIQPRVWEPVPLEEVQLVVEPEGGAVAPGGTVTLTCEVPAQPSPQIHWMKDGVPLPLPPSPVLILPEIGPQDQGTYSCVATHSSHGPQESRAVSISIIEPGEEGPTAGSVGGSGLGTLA
Counter-ions that a name gives are not always drawn.
metricName: IC50 (nM)
Give bare numbers, in nM.

CCCCc1nnc(OC2CCN(C)CC2)cc1-c1ccc(OC2CCCCC2)c(N(CC(C)C)C(C)=O)c1 [Example 63, dihydrochloride]    680
CCCCc1nnc(OC2CCN(C)CC2)c(C(F)(F)F)c1-c1ccc(OC2CCCCC2)cc1 [Example 58, dihydrochloride]    760
CCCCc1nnc(OC2CCN(C)CC2)cc1-c1ccc(OCCC2CCCCC2)cc1 [Example 52, dihydrochloride]    690
CCCCc1nnc(OCC2(F)CCN(C)CC2)cc1-c1ccc(OC2CCCCC2)cc1 [Example 45, dihydrochloride]    500
CCCCc1nnc(C(=O)N[C@@H]2CN3CCC2CC3)cc1-c1ccc(OCc2ccccc2)cc1 [Example 82, dihydrochloride]    1290
CCCCc1nnc(OC[C@H]2CN(C)C[C@@H]2COC)cc1-c1ccc(OCc2ccccc2)cc1 (racemic) [Example 7, dihydrochloride]    1520

Let's switch to this compound now.
System sRAGE binding to β-amyloid (Homo sapiens, UniProt Q15109). Read-out IC50. Item CN1CCC(Oc2cc(-c3ccc(OC4CCCCC4)cc3)c(C3CC3)nn2)CC1 [Example 59, dihydrochloride] . Report value.
3160

###

target: sRAGE binding to S100b (Homo sapiens, UniProt Q15109); construct: extracellular domain can be isolated by proteolysis of RAGE to generate soluble RAGE (sRAGE) comprised of the V and C domains; assay: RAGE binding assay (ELISA), S100b as the RAGE ligand; conditions: compounds tested in hydrochloride salt form, concentration at which 50% signal has been inhibited
Sequence (Q15109 23-342 limits assumed): as above
Structures can show the parent of a compound that is named as a salt.
For each record, write down the corresponding pIC50.
One number for each entry, as −log10 of the molar value.

Example entries and their recorded answers appear below.
CCCCc1nnc(C(=O)NC2(CO)CCN(C)C2)cc1-c1ccc(OC2CCCCC2)cc1 (stereo not shown) [Example 111, dihydrochloride]    5.67
CCCCc1nnc(OC2CCN(C)CC2)cc1-c1ccc(OC2CCCCC2)cc1 [Example 14, dihydrochloride]    6.09
CCCCc1nnc(OCC[C@H]2CCCCN2C)cc1-c1ccc(OC2CCCCC2)cc1 [Example 32, dihydrochloride]    5.56
CCCCc1nnc(OC2CCN(CCO)CC2)cc1-c1ccc(OC2CCCCC2)cc1 [Example 17, dihydrochloride]    6.09
CCCCc1nnc(OCC2CCN(C)C2)cc1-c1ccc(OCc2ccccc2)cc1 (stereo not shown) [Example 10, dihydrochloride]    5.82

Provide each entry's pIC50 from the list below.
1. CCCCc1nnc(OC[C@H]2CN(C)C[C@@H]2COC)cc1-c1ccc(OCc2ccccc2)cc1 (racemic) [Example 7, dihydrochloride]
2. CCCCc1nnc(OCC2CN(C)CCC2(F)F)cc1-c1ccc(OC2CCCCC2)cc1 (stereo not shown) [Example 39, dihydrochloride]
3. CCCCc1nnc(C(=O)NC[C@@H]2CCN(C)C[C@@H]2OC)cc1-c1ccc(OC2CCCCC2)cc1 (racemic) [Example 104, dihydrochloride]
4. CCCCc1nnc(OCCCN(CC)CC)cc1-c1ccc(OCc2ccccc2)cc1 [Example 4, dihydrochloride]

[5.63, 5.91, 5.95, 5.94]
